Where do the numbers come from? From BindingDB's records for doi:10.1021/jm300025r.

- Protocol: Inhibition of CHK1 in human HT29 cells assessed as abrogation of camptothecin induced check point
Parameter measured: EC50 (nM)

NC(=O)Nc1cc(-c2ccc(F)cc2)sc1C(=O)N[C@H]1CCCNC1
20
NC(=O)Nc1sc(-c2ccc(F)cc2F)cc1C(=O)N[C@H]1CCCNC1
190
N#Cc1cccc(-c2cc(NC(N)=O)c(C(=O)N[C@H]3CCCNC3)s2)c1
40
NC(=O)Nc1sc(-c2ccc(F)cc2)cc1C(=O)N[C@H]1CCCNC1
30
N#Cc1cccc(-c2cc(C(=O)N[C@H]3CCCNC3)c(NC(N)=O)s2)c1
940
NC(=O)Nc1sc(-c2cccc(F)c2F)cc1C(=O)N[C@H]1CCCNC1
100
NC(=O)Nc1sc(-c2ccccc2F)cc1C(=O)N[C@H]1CCCNC1
80
NC(=O)Nc1cc(-c2cccc(Cl)c2)sc1C(=O)N[C@H]1CCCNC1
10
NC(=O)Nc1cc(-c2ccc(Cl)c(Cl)c2)sc1C(=O)N[C@H]1CCCNC1
200
NC(=O)Nc1cc(-c2ccccc2F)sc1C(=O)N[C@H]1CCCNC1
20
NC(=O)Nc1sc(-c2cc(F)cc(F)c2)cc1C(=O)N[C@H]1CCCNC1
30
N#Cc1ccc(-c2cc(C(=O)N[C@H]3CCCNC3)c(NC(N)=O)s2)cc1
8
N#Cc1ccc(-c2cc(NC(N)=O)c(C(=O)N[C@H]3CCCNC3)s2)cc1
30
NC(=O)Nc1cc(-c2cccc(F)c2F)sc1C(=O)N[C@H]1CCCNC1
60
NC(=O)Nc1cc(-c2cc(F)cc(F)c2)sc1C(=O)N[C@H]1CCCNC1
60
NC(=O)Nc1cc(-c2ccc(F)cc2F)sc1C(=O)N[C@H]1CCCNC1
20
NC(=O)Nc1sc(-c2cccc(Cl)c2)cc1C(=O)N[C@H]1CCCNC1
40
NC(=O)Nc1sc(-c2cccc(F)c2)cc1C(=O)N[C@H]1CCCNC1
20
NC(=O)Nc1cc(-c2ccccc2)sc1C(=O)N[C@H]1CCCNC1
20
NC(=O)Nc1sc(-c2ccc(Cl)c(Cl)c2)cc1C(=O)N[C@H]1CCCNC1
150

====

- Protocol: Inhibition of CHK1 in human HT29 cells assessed as check point abrogation
pEC50: −log10 of the molar value.
Would you please tag the item criterion met when its pEC50 is 6 or above, and criterion not met when it is below?

N#Cc1cccc(-c2cc(NC(N)=O)c(C(=O)N[C@H]3CCCNC3)s2)c1
criterion not met
NC(=O)Nc1cc(-c2ccc(F)cc2)sc1C(=O)N[C@H]1CCCNC1
criterion not met
NC(=O)Nc1sc(-c2cccc(F)c2F)cc1C(=O)N[C@H]1CCCNC1
criterion not met
NC(=O)Nc1sc(-c2ccc(F)cc2)cc1C(=O)N[C@H]1CCCNC1
criterion met
N#Cc1cccc(-c2cc(C(=O)N[C@H]3CCCNC3)c(NC(N)=O)s2)c1
criterion not met
N#Cc1ccc(-c2cc(NC(N)=O)c(C(=O)N[C@H]3CCCNC3)s2)cc1
criterion met
NC(=O)Nc1cc(-c2ccccc2F)sc1C(=O)N[C@H]1CCCNC1
criterion not met

====

Examples of molecules with documented EC50 follow.
- Protocol: Inhibition of CHK1 in human HT29 cells assessed as check point abrogation
Parameter measured: EC50 (µM)

NC(=O)Nc1cc(-c2ccc(F)cc2F)sc1C(=O)N[C@H]1CCCNC1
1.1
NC(=O)Nc1cc(-c2cccc(F)c2F)sc1C(=O)N[C@H]1CCCNC1
1.5
NC(=O)Nc1sc(-c2cccc(Cl)c2)cc1C(=O)N[C@H]1CCCNC1
1.2
NC(=O)Nc1sc(-c2cccc(F)c2)cc1C(=O)N[C@H]1CCCNC1
0.84
